biological target: HLA-B*18:01; assay: IEDB peptide-MHC binding, purified MHC/competitive/fluorescence; filed as Kd, often an IC50 or EC50 that approximates it; bounds were set here for any values at or beyond the usual limits of such assays; settings: source organism: Pseudomonas aeruginosa PACS2
ENDPOINT_NAME: Kd

Query block: Which Kd reading was recorded for the sequence `KLIDVSKCI` ?
Result block: ≥ 20 µM

====

biological target: HLA-A*31:01; assay: IEDB peptide-MHC binding, purified MHC/competitive/radioactivity; filed as Kd, often an IC50 or EC50 that approximates it; bounds were set here for any values at or beyond the usual limits of such assays; conditions: source organism: Vaccinia virus WR
I'd be grateful if you could share measured pKd for these entries.
Lab note — pKd values are minus log10 of concentrations in M.

Query block: # value lookup — system HLA-A*31:01, readout pKd, item `IASKINNNR`
Result block: 7.54

Query block: One more sequence: `HIKTIAVSVY`
Result block: 6.04

Query block: One more sequence: `ISRDELWAR`
Result block: 7.32

Query block: One more sequence: `LSKIPYLRNY`
Result block: 6.49

Query block: One more sequence: `FIDVHIPKFK`
Result block: 5.57

Query block: One more sequence: `MLNRVQILMK`
Result block: 6.21

Query block: One more sequence: `QTIASKKDK`
Result block: 6.23

Query block: One more sequence: `CFKEASFSKR`
Result block: 7.44

Query block: One more sequence: `ILMIFISSFL`
Result block: 6.20

Query block: One more sequence: `SLELIIIHTK`
Result block: 6.89

Query block: One more sequence: `ITLDTMDDMK`
Result block: 4.78

Query block: One more sequence: `SMFWDGMDY`
Result block: 6.91

Query block: One more sequence: `LTTHCTKLR`
Result block: 5.07

Query block: One more sequence: `ILFMEMFFDY`
Result block: 5.26

Query block: One more sequence: `AQYKCVTIKY`
Result block: 5.67

Query block: One more sequence: `MSHLKVALY`
Result block: 6.15

Query block: One more sequence: `ILKINSVKYY`
Result block: 5.31

Query block: One more sequence: `HTSVSAKQLR`
Result block: 6.79

Query block: One more sequence: `RSLQTIASK`
Result block: 8.37

Query block: One more sequence: `SINVTIPEQY`
Result block: 5.09

Query block: One more sequence: `LVFNSISAR`
Result block: 8.60

Query block: One more sequence: `TSDSKSIENK`
Result block: 4.84

Query block: One more sequence: `ALDEKWNEFK`
Result block: 5.14

Query block: One more sequence: `IFPANINDK`
Result block: 5.45

Query block: One more sequence: `CAMPYNILDR`
Result block: 6.52

Query block: One more sequence: `GIGTFLHYK`
Result block: 7.18

Query block: One more sequence: `NTTYDFLARK`
Result block: 5.26

Query block: One more sequence: `ISSRVDRYSK`
Result block: 5.14

Query block: One more sequence: `SISSVLTILY`
Result block: 5.03

Query block: One more sequence: `PSTDVNKQNK`
Result block: 5.32

Query block: One more sequence: `RSLQTIASKK`
Result block: 6.74

Query block: One more sequence: `HMVRCCKVY`
Result block: 4.97

Query block: One more sequence: `SLNRQTVSR`
Result block: 8.14

Query block: One more sequence: `VMHINSPFK`
Result block: 7.70

Query block: One more sequence: `NSISARALK`
Result block: 7.95

Query block: One more sequence: `LSIVVDINK`
Result block: 5.38

Query block: One more sequence: `YQSFLFWFLK`
Result block: 7.74

Query block: One more sequence: `VTDLENRLK`
Result block: 4.87
